assay: yeast display, Sf9 membrane polyspecificity reagent, FACS + sequencing; frameworks hold sequencing errors
experimental-readout: polyreactivity (PSR sort gate)

Field: example entries. Status: answers known.
Task: Note down polyreactivity (PSR sort gate) recorded for QVQLVESGGGLVQAGGSLRLSCAASGTFYKYAMGWYRQAPGKERELVAAISWRGGRTYADSVKGRFTISRDNANNTVYLQMNSLKPEDTAVYYCAAEYRYDWYTYGYWGQGTQVTVSS
Result: high polyreactivity

Task: Note down polyreactivity (PSR sort gate) recorded for QVQLVESGGGLVQAGGSLRLSCAASGSIFENYAMGCYRQAPGKERELVAAISSSGDSTYYADSVKGRFTISRDNAKNTVYLQMNSLKPEDTAVYYCAKGYRRVYGPFYYWGQVTQVTVSS
Result: low polyreactivity

Task: Note down polyreactivity (PSR sort gate) recorded for QVQLVESGGGLVQAGGSLRLSCAASGFIFPYYAMGWYRQAPGKERELVAAITSSGGRTYYADSVKGRFTISRDNAKNTVYFQMNSLKPEDTAVYYCAAYYLTPTDVEYDYWGQGTQVTVSS
Result: high polyreactivity

Task: Note down polyreactivity (PSR sort gate) recorded for QVQLVESGGGLVQAGGSLRLSCAASGFILYYYALGWYRQAPGKEWEIVAAISRNGGRTYYADSVKGRFTISRDNAKNTVYLQMISLKPEDTAVDYCNKGVSRTLSSAYEYWGQGTQVTVSS
Result: high polyreactivity

From here, focus on the item given below.
Task: Note down polyreactivity (PSR sort gate) recorded for QVQLVESGGGLVQAGGSLRLSCAASGRTFGQNAMGWYRQAPGKERELVASIRSGGITDYADSVKGRFTISRDNAKNTVYLQMNSLKPEDTAVYYCNDEGVWWSTRYDSWGQGTQVTVSS
Result: low polyreactivity

----------
assay: yeast display, Sf9 membrane polyspecificity reagent, FACS + sequencing; frameworks hold sequencing errors
experimental-readout: polyreactivity (PSR sort gate)

Task: Note down polyreactivity (PSR sort gate) recorded for QVQLVESGGGLVQAGGSLRLSCAASGFTFRYYAMGWYRQAPGKERELVAAISWSGGRTYYADSVKGRFTISRDNAKNTVYLQMNSLKPEDTAVYYCAADGYPYFYGDFDYWGQGTQVTVSS
Result: high polyreactivity

Task: Note down polyreactivity (PSR sort gate) recorded for QVQLVESGGGLVQAGGSLRLSCAASGRIFFNYAMGWYRQAPGKERELVAAITRSGGRTYYADSVKGRFTISRDNAKNTVYLQMNSLKPEDTAVYYCAADSGSRGSVAHEYWGQGTQVTVSS
Result: high polyreactivity

----------
test: yeast display, Sf9 membrane polyspecificity reagent, FACS + sequencing; frameworks hold sequencing errors
experimental-readout: polyreactivity (PSR sort gate)

Field: example entries. Status: answers known.
Task: Note down polyreactivity (PSR sort gate) recorded for QVQLVESGGGLVQAGGSLRLSCAASGRISWGYAMGWYRQAPGKERELVAVINFNGGRTYYADSVKGRFTISRDNAKNTVYLQMNSLKAEDTAVYYCAADSGYEYDYWGQGTQVTVSS
Result: low polyreactivity

Task: Note down polyreactivity (PSR sort gate) recorded for QVQVVESGGGLVQAGGSHRLSCAASGSTFIRYPMGWYRQAPGKERELVAAITWSGGSTYYADSVKGRFTISRDNAKNTVYLQMNSLKPEDTAFYYCAARGPSLSNYRGRMYYWGQGTQVTVSS
Result: high polyreactivity

Task: Note down polyreactivity (PSR sort gate) recorded for QVQLVESGGGLVQAGGSLRLSCAASGFTFTPYAMGWYRQAPGKERELVAAITWRGGTYYADSVKGRFTISRDNAKNTVYLQMNSLKPEDTAVYYCAARVWRLYPSTYDYWGQGTQVTVSS
Result: high polyreactivity

Task: Note down polyreactivity (PSR sort gate) recorded for QVQLVESGGGLVQAGGSLRLSCAASGRTFYAYVMGWYRQAPGKERELVAAISGGGRTYYADSVKGRFTISRDNAKNTVYLQMNSLKPEDTAVYYCAAVSLWYSAYEYWGQGTQVTVSS
Result: high polyreactivity

Task: Note down polyreactivity (PSR sort gate) recorded for QVQLVESGGGLVQAGGSLRLSCAASGSIFPGYAMGWYRPAPGKERELVAAITDSGVSTYYADSVKGRFTISRDNAKNTVYLQMNSLKPEDTAVYYCARDNWQWYPSTWYDYWGQGTQVTVSS
Result: high polyreactivity

***
Task: Note down polyreactivity (PSR sort gate) recorded for QVQLVESGGGLVQAGGSLRLSCAASGLTFASYAMGWYRQAPGKERELVARISRSGGSTYYADSVKGRFTISRDNAKNTVYLQMKSLKPEDTAVYYCAADYIFRRYPVGGIYDYDYWGQGTQVSVSS
Result: high polyreactivity

Task: Note down polyreactivity (PSR sort gate) recorded for QVQLVESGGGLVQAGGSLRISCAASGFIFFYAMGWYRQAPGKERELVASIDSGVSTDYADSVKGRLTISRDNAKNTVYLQMNSLKPEDNAVYYCAADPWSSLNYDYWGQGTQVTVSS
Result: low polyreactivity

Task: Note down polyreactivity (PSR sort gate) recorded for QVQLVESGGGLVQAGGSLRLSCAASGSTFTVNTMGWYRQAPGKERELVAAISFGGGPTYYADSVKGRFTISRDNAKNTVYLQMNSLKPEDTAVYSCAARGSLWNARKYYYWGQGTQVTVSS
Result: high polyreactivity
